system: MT4; test: Cytotoxicity against human MT4 cells after 5 days by MTT assay; assay type: cell-based; conditions: mt4, 120 h
# CC50 annotations
A number alone suffices; assume µM.

Some solved cases for reference:
| itemSmiles | resultUnit | reportedMeasurement |
| --- | --- | --- |
| Cc1cc(C#N)cc(C)c1Oc1nc(NC2CCN(Cc3ccc(S(C)(=O)=O)cc3)CC2)nc2c1CCC2 | µM | 7.45 |
| Cc1cc(C#N)cc(C)c1Oc1nc(NC2CCN(Cc3cccc(C(N)=O)c3)CC2)nc2c1CCCC2 | µM | 158 |
| Cc1cc(C#N)cc(C)c1Oc1nc(NC2CCN(Cc3ccc([N+](=O)[O-])cc3)CC2)nc2c1SCCC2 | µM | 4 |

Lookup: Using the record for `Cc1cc(C#N)cc(C)c1Oc1nc(NC2CCN(Cc3ccc(S(N)(=O)=O)cc3)CC2)nc2c1COC2` , report its CC50.
Found: 27.5

Lookup: // lookup CC50 for `Cc1cc(C#N)cc(C)c1Oc1nc(NC2CCN(Cc3ccc(C(N)=O)cc3)CC2)nc2c1SCC2`
Found: 165

Lookup: What measured CC50 goes with `Cc1cc(C#N)cc(C)c1Oc1nc(NC2CCN(Cc3ccc(S(N)(=O)=O)cc3)CC2)nc2c1SCC2` ?
Found: 19.9

Lookup: State the recorded CC50 for this entry: `Cc1cc(C#N)cc(C)c1Oc1nc(NC2CCN(Cc3ccc(S(C)(=O)=O)cc3)CC2)nc2c1CSC2`
Found: 45.3

Lookup: Name the recorded CC50 for `Cc1cc(C#N)cc(C)c1Oc1nc(NC2CCN(Cc3ccc([N+](=O)[O-])cc3)CC2)nc2c1CCC2` .
Found: 8.73
